Recorded pIC50, one value per entry.
- target of assay: UniProt O42275
- Sequence (O42275 whole entry): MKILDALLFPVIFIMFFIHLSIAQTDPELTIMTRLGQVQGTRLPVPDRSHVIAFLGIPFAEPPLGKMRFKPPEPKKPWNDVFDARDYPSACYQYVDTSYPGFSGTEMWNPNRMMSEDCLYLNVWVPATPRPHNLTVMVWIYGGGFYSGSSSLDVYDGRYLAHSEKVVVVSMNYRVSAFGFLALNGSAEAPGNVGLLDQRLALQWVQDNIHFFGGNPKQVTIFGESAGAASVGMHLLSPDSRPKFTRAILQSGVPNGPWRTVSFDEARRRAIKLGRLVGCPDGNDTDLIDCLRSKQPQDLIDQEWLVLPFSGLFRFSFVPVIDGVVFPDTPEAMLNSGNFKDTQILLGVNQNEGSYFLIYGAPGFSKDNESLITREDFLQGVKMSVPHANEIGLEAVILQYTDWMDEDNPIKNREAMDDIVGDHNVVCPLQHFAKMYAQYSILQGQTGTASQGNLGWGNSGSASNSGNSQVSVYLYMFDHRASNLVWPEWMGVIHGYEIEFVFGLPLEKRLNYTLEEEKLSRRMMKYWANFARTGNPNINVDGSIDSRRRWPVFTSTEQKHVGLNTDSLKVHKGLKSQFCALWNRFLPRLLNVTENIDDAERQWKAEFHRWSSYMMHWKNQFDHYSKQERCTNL
Bear in mind: pIC50 is minus log10 of a mol/L concentration; give just that figure.

# count of solved cases: 5
[[record]]
structure = "CCc1ccc(/C=N/NC(N)=S)cc1"
endpoint = "pIC50"
recorded_result = 4.57

[[record]]
structure = "N/C(S)=N/N=C/c1ccc([N+](=O)[O-])cc1"
endpoint = "pIC50"
recorded_result = 4.81

[[record]]
structure = "N=C(S)N/N=C/c1ccc(C(F)(F)F)cc1"
endpoint = "pIC50"
recorded_result = 4.44

[[record]]
structure = "COc1ccc(/C=N/NC(N)=S)cc1"
endpoint = "pIC50"
recorded_result = 4.44

[[record]]
structure = "NC(=S)N/N=C/c1cccc(F)c1"
endpoint = "pIC50"
recorded_result = 4.57


Input: Which pIC50 value belongs to NC(=S)N/N=C/c1ccc(Br)cc1 ?
Output: 4.51

Input: Now the molecule NC(=S)N/N=C/c1ccccc1F
Output: 4.51

Input: Follow-up entry: NC(=S)N/N=C/c1ccc(F)cc1
Output: 4.42

Input: Same again, this time with CN(C)c1ccc(/C=N/NC(N)=S)cc1
Output: 4.45

---

activity at 10 µM overview
- target of assay: Amine oxidase [flavin-containing] A (Homo sapiens, UniProt P21397)
- Sequence (P21397 whole entry): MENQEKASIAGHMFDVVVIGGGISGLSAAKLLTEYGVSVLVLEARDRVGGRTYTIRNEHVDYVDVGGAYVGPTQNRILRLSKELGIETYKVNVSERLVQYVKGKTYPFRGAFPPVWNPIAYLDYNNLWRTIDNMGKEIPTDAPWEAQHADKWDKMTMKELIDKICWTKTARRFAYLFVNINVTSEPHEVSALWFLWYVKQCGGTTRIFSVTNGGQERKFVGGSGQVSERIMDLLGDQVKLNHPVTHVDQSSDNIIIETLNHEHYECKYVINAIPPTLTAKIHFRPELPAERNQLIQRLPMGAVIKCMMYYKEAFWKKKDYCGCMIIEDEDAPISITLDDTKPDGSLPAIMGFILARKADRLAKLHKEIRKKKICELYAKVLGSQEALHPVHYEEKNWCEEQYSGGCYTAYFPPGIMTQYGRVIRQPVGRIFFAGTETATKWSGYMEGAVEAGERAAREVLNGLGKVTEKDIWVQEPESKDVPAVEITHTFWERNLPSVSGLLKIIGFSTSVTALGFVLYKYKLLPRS
- method: Inhibition of MAOA (unknown origin) assessed as residual activity at 10 uM using kynuramine as substrate preincubated for 30 mins followed by substrate addition relative to control
- protocol conditions: read-out: Activity
Your answer is read as %, so omit the unit and give the number.

[[record]]
compound = "NC(=S)N/N=C/c1ccc(F)cc1"
recorded_result = 84.5


Input: Form field: reported activity at 10 µM of CN(C)c1ccc(/C=N/NC(N)=S)cc1
Output: 16.5

Input: Same question for NC(=S)N/N=C/c1ccc(O)cc1 please.
Output: 66

---

Reported activity at 10 µM values follow for various molecules
- target of assay: Amine oxidase [flavin-containing] B (Homo sapiens)
- Sequence (P27338 whole entry): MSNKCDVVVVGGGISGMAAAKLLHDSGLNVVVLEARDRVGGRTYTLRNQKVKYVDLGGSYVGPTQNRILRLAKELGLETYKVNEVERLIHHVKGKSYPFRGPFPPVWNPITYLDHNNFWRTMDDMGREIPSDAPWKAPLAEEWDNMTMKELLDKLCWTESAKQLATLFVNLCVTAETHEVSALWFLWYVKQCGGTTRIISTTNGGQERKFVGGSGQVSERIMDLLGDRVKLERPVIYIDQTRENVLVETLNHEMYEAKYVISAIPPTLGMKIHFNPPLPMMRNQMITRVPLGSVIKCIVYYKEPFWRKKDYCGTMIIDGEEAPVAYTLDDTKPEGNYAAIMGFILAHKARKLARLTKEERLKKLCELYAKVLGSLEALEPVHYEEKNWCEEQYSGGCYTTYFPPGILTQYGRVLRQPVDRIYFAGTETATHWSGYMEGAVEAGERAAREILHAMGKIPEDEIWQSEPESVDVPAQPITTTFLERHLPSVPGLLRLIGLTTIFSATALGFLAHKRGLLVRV
- method: Inhibition of MAOB (unknown origin) assessed as residual activity at 10 uM using benzylamine as substrate preincubated for 30 mins followed by substrate addition relative to control
- protocol conditions: read-out: Activity

The examples below pair each entry with its known result.
[[record]]
structure = "NC(=S)N/N=C/c1ccc(Br)cc1"
recorded_result = "82.5%"

[[record]]
structure = "COc1ccc(/C=N/NC(N)=S)cc1"
recorded_result = "82.1%"

[[record]]
structure = "CN(C)c1ccc(/C=N/NC(N)=S)cc1"
recorded_result = "82.3%"

[[record]]
structure = "N/C(S)=N/N=C/c1ccc([N+](=O)[O-])cc1"
recorded_result = "7.5%"

[[record]]
structure = "NC(=S)N/N=C/c1cccc(F)c1"
recorded_result = "3%"

[[record]]
structure = "NC(=S)N/N=C/c1ccc(F)cc1"
recorded_result = "86.5%"

[[record]]
structure = "NC(=S)N/N=C/c1ccc(Cl)cc1"
recorded_result = "60.5%"

[[record]]
structure = "CCc1ccc(/C=N/NC(N)=S)cc1"
recorded_result = "86.2%"


Input: Field request: activity at 10 µM | item: NC(=S)N/N=C/c1ccc(O)cc1
Output: 87.5%

Input: // next record NC(=S)N/N=C/c1ccccc1
Output: 75.5%

Input: What do you get for Cc1ccc(/C=N/NC(N)=S)cc1 ?
Output: 91.5%

Input: Try N=C(S)N/N=C/c1ccc(C(F)(F)F)cc1 next.
Output: 77.5%

Input: How about this molecule: NC(=S)N/N=C/c1ccccc1F
Output: 33.5%
